meta.source: patent US11225474B2

# conditionParameters: equilibrium solubility test in water
Listed here: items and their measured pH.
measurementType: pH

| compound | measurementType | recordedNumber |
| --- | --- | --- |
| CS(=O)(=O)O.Cc1ccc(C(=O)Nc2ccc(CN3CCN(C)CC3)c(C(F)(F)F)c2)cc1C#Cc1nnc2ccccn12 [methanesulfonic acid salt] | pH | 3.6 |
| Cc1ccc(C(=O)Nc2ccc(CN3CCN(C)CC3)c(C(F)(F)F)c2)cc1C#Cc1nnc2ccccn12 [free base] | pH | 5.3 |
| Cc1ccc(C(=O)Nc2ccc(CN3CCN(C)CC3)c(C(F)(F)F)c2)cc1C#Cc1nnc2ccccn12.O=C(O)/C=C/C(=O)O | pH | 4.2 |
| Cc1ccc(C(=O)Nc2ccc(CN3CCN(C)CC3)c(C(F)(F)F)c2)cc1C#Cc1nnc2ccccn12.Cl | pH | 4.0 |
| Cc1ccc(C(=O)Nc2ccc(CN3CCN(C)CC3)c(C(F)(F)F)c2)cc1C#Cc1nnc2ccccn12.Cc1ccc(S(=O)(=O)O)cc1 | pH | 3.5 |
